Test System: recombinant human dopamine transporter (Homo sapiens, UniProt Q01959)
Construct: expressed in transfected cells; host or cells: CHO-K1 or HEK293
Sequence (Q01959 whole entry): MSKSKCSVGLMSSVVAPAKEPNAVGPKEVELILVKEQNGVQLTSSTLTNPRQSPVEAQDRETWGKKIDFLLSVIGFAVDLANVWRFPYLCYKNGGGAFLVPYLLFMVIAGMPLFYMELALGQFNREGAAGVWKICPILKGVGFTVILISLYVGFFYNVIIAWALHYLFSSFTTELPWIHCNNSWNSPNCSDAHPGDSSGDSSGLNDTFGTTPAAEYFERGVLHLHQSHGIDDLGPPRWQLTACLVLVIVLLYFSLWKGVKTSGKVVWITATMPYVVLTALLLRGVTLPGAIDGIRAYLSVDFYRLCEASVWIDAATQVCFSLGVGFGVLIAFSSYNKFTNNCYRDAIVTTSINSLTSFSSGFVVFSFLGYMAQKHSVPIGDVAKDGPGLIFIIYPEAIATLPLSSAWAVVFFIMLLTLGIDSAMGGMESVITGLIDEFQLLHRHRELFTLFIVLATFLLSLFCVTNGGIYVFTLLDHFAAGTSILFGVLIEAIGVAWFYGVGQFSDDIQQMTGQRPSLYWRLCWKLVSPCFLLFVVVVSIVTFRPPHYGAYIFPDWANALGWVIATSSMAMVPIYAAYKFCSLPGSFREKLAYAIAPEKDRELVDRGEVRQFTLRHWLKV
Measurement Protocol: Dopamine functional uptake assay for human reuptake transporter
Type: cell-based
Condition: Human IC50 (nM) DAT
Readout Kind: IC50 (nM)

INSERT INTO results (molecule, data_value) VALUES
  ('N[C@H]1Cc2ccccc2[C@H](c2ccc(Cl)c(Cl)c2)C1 (single isomer, unassigned) [Compound 6d]', 175),
  ('N[C@H]1Cc2ccccc2[C@H](c2ccc(Cl)c(Cl)c2)C1 (single isomer, unassigned) [Compound 6c]', 894),
  ('N[C@H]1Cc2ccccc2[C@H](c2ccc(Cl)c(Cl)c2)C1 (single isomer, unassigned) [Compound 6b]', 408);
